Biological target: rat liver HMG-CoA reductase (Rattus norvegicus)
Sequence (P51639 1-887): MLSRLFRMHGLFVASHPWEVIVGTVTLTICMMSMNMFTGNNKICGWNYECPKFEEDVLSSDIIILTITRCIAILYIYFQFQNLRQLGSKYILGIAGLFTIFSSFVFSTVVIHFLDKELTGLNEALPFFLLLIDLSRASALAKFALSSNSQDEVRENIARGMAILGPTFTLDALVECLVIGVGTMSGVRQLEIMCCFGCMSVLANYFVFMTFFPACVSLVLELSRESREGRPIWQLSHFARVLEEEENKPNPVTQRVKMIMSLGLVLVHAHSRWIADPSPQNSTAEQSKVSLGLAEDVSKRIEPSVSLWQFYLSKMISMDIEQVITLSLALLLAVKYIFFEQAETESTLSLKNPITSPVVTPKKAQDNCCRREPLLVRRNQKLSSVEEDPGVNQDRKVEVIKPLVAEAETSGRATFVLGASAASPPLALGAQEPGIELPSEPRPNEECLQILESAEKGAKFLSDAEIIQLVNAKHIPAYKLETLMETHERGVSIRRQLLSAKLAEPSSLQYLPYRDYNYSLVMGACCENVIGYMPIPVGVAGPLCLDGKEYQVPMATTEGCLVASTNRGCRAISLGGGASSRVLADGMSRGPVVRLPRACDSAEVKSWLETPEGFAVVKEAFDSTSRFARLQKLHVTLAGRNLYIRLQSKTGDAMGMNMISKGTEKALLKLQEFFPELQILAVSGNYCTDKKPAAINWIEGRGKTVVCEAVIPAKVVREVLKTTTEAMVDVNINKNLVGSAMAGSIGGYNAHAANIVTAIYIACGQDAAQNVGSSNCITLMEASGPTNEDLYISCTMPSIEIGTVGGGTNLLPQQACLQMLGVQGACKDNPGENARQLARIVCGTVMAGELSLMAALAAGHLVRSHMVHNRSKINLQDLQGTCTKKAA
MEASURE_NAME: IC50

input: Fill in reported IC50 for this entry: CCOC(=O)C[C@H](O)C[C@H](O)/C=C/C(=C(c1ccc(F)cc1)c1ccc(F)cc1)c1nnnn1C (relative stereo) [Example 11]
output: > 330 µM

Origin of measurements: patent US4897490A
